// data source = patent US20240190880A1

Each item that follows carries a reported DC50.
target: ER (Homo sapiens); construct: host or cells: T47D and MCF7 human breast cancer cells; assay: ER degradation activity, in-cell western blot analysis in T47D cells; type: cell-based; settings: compounds 16 hours, Table A does not say whether T47D or MCF7, read-out: Potency (DC50)

COMPOUND	TARGET OR TEST SYSTEM	DC50
COc1cc([C@H]2CC[C@@H](C(=O)N3CCC(N4Cc5cc6c(cc5C4)C(=O)N(C4CCC(=O)NC4=O)C6=O)CC3)CC2)ccc1[C@@H]1c2[nH]c3ccccc3c2C[C@@H](C)N1CC(F)F (some centres unmarked) [E 404]	ER (Homo sapiens)	> 100 nM
O=C1CCC(N2C(=O)c3cc4c(cc3C2=O)CN(CC(=O)N2CCC3(CC2)CCN(c2ccc([C@@H]5c6ccc(-c7cn[nH]c7)cc6CC[C@@H]5c5ccccc5)cc2)CC3)C4)C(=O)N1 (some centres unmarked) [E 510]	ER (Homo sapiens)	> 100 nM
O=C1CCC(N2Cc3cc4c(cc3C2=O)CN(C[C@H]2CC[C@H](C(=O)N3CC(Oc5ccc([C@@H]6c7ccc(O)cc7CC[C@@H]6c6ccccc6)cc5)C3)CC2)C4)C(=O)N1 (mixture of isomers) [E 499]	ER (Homo sapiens)	10 to 100 nM
COc1c2c(cc3c1C(=O)N(C1CCC(=O)NC1=O)C3=O)CN(CC(=O)N1CCC3(CC1)CCN(c1ccc([C@@H]4c5ccc(O)cc5CC[C@@H]4c4ccccc4)cc1)CC3)C2 (some centres unmarked) [E 420]	ER (Homo sapiens)	10 to 100 nM
C[C@@H]1Cc2c([nH]c3ccccc23)[C@@H](c2ccc(C3CCC(C(=O)N4CCC(N5Cc6cc7c(cc6C5)C(=O)N(C5CCC(=O)NC5=O)C7=O)CC4)CC3)c(F)c2)N1CC(F)F (some centres unmarked) [E 475]	ER (Homo sapiens)	10 to 100 nM
O=C1CCC(N2C(=O)c3cc4c(cc3C2=O)CN(C2CC3CCC(C2)N3CC2CCN(c3ccc([C@@H]5c6ccc(O)cc6CC[C@@H]5c5ccccc5)cc3)CC2)C4)C(=O)N1 (some centres unmarked) [E 497]	ER (Homo sapiens)	> 100 nM
C[C@@H]1Cc2cc(O)ccc2[C@@H](c2ccc(C3=CCC4(CC3)CCN(C(=O)CN3Cc5cc6c(cc5C3)C(=O)N(C3CCC(=O)NC3=O)C6=O)CC4)cc2)N1CC(F)F (some centres unmarked) [E 448]	ER (Homo sapiens)	> 100 nM
C[C@@H]1Cc2cc(O)ccc2[C@@H](c2ccc(N3CCC4(CCN(C(=O)CN5Cc6cc7c(cc6C5)C(=O)N(C5CCC(=O)NC5=O)C7=O)CC4)CC3)cc2)N1c1ccc(F)cc1 (some centres unmarked) [E 462]	ER (Homo sapiens)	10 to 100 nM
C[C@@H]1Cc2c([nH]c3ccccc23)[C@@H](c2cnc(N3CCC4(CC3)CC(CN3Cc5cc6c(cc5C3)C(=O)N(C3CCC(=O)NC3=O)C6=O)C4)nc2)N1CC(C)(C)F (some centres unmarked) [E 473]	ER (Homo sapiens)	10 to 100 nM
C[C@@H]1Cc2cc(O)ccc2[C@@H](c2c(F)cc(OC3CC4(CCN(C(=O)CN5Cc6cc7c(cc6C5)C(=O)N(C5CCC(=O)NC5=O)C7=O)CC4)C3)cc2F)N1CC(F)F (some centres unmarked) [E 455]	ER (Homo sapiens)	10 to 100 nM
O=C1CCC(N2C(=O)c3cc4c(cc3C2=O)CN(CC(=O)N2CCC3(CC2)CCN(C(=O)c2ccc([C@@H]5c6ccc(O)cc6CC[C@@H]5c5ccccc5)cc2)CC3)C4)C(=O)N1 (some centres unmarked) [E 495]	ER (Homo sapiens)	> 100 nM

* * *

biological target: ER (Homo sapiens, UniProt P03372); construct: host or cells: T47D and MCF7 human breast cancer cells; assay: ER degradation activity, in-cell western blot analysis in T47D cells; type: cell-based; details: 16 hours, Table A does not say which cell line (T47D or MCF7), read-out: Potency (DC50)
Sequence (P03372 whole entry): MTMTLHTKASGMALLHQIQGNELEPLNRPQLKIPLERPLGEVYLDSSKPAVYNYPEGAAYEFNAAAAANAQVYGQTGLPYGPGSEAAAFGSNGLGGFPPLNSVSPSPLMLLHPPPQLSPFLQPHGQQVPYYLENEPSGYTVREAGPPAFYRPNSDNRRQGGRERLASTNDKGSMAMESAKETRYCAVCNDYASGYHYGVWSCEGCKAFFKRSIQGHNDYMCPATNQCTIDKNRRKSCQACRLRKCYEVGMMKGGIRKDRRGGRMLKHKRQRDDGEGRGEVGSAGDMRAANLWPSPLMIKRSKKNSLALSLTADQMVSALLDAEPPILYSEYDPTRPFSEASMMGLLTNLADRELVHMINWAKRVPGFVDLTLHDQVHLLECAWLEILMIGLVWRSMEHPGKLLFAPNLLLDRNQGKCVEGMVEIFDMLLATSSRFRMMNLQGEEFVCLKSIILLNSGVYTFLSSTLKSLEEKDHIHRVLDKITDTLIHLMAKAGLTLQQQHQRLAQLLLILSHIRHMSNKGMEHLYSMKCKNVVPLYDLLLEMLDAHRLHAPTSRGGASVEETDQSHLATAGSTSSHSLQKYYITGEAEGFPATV

COMPOUND	DC50
CN(C1CN(c2ccc([C@@H]3c4ccc(O)cc4CC[C@@H]3c3ccccc3)cc2)C1)[C@H]1CC[C@H](C(=O)N2Cc3cc4c(cc3C2)C(=O)N(C2CCC(=O)NC2=O)C4)CC1 (single isomer, unassigned)	> 100 nM
O=C1CCC(N2Cc3cc4c(cc3C2=O)CN(CC(=O)N2CCC3(CC2)CN(c2ccc([C@@H]5c6ccc(O)cc6CC[C@@H]5c5ccccc5)cc2)C3)C4)C(=O)N1 (mixture of isomers)	< 10 nM
O=C1CCC(N2C(=O)c3cc4c(cc3C2=O)CN(CC(=O)NC2CCN(c3ccc([C@@H]5c6ccc(O)cc6CC[C@@H]5c5ccccc5)cc3)CC2)C4)C(=O)N1 (stereo partly shown)	> 100 nM
C[C@@H]1Cc2c([nH]c3ccccc23)[C@@H](c2c(F)cc(N3CCC(N4CC(C(=O)N5Cc6cc7c(cc6C5)C(=O)N(C5CCC(=O)NC5=O)C7=O)C4)CC3)cc2F)N1CC(F)F (stereo partly shown)	> 100 nM
C[C@@H]1Cc2c([nH]c3ccccc23)[C@@H](c2c(F)cc(N3CCC4(CCN(CC(=O)N5Cc6cc7c(cc6C5)C(=O)N(C5CCC(=O)NC5=O)C7=O)CC4)C3)cc2F)N1CC(F)F (stereo partly shown)	< 10 nM
O=C1CCC(N2C(=O)c3cc4c(cc3C2=O)CN(CC2CCC(NC3CN(c5ccc([C@@H]6c7ccc(O)cc7CC[C@@H]6c6ccccc6)cc5)C3)CC2)C4)C(=O)N1 (stereo partly shown)	> 100 nM
O=C1CCC(N2C(=O)c3cc4c(cc3C2=O)CN(C2CCC(C(=O)N3CC(Oc5ccc([C@H]6c7ccc(O)cc7CC[C@H]6c6ccccc6)cc5)C3)CC2)C4)C(=O)N1 (stereo partly shown)	10 to 100 nM
O=C1CCC(N2C(=O)c3cc4c(cc3C2=O)CN(C(=O)[C@H]2CC[C@H](CN3CC(Oc5ccc([C@@H]6c7ccc(O)cc7CC[C@@H]6c6ccccc6)cc5)C3)CC2)C4)C(=O)N1 (stereo partly shown)	> 100 nM
CCC(=C(c1ccc(O)cc1)c1ccc(N2CCC3(CC2)CN(C(=O)CN2Cc4cc5c(cc4C2)C(=O)N(C2CCC(=O)NC2=O)C5=O)C3)cc1)c1ccccc1 (stereo not shown)	10 to 100 nM
O=C1CCC(N2Cc3cc4c(cc3C2=O)CN(C(=O)[C@H]2CC[C@@H](N3CC(Nc5ccc([C@@H]6c7ccc(O)cc7CC[C@@H]6c6ccccc6)cc5)C3)CC2)C4)C(=O)N1 (single isomer, unassigned)	> 100 nM
C[C@@H]1Cc2c([nH]c3ccccc23)[C@@H](c2c(F)cc(N3CCC(CN4CCC(C(=O)N5Cc6cc7c(cc6C5)C(=O)N(C5CCC(=O)NC5=O)C7=O)CC4)CC3)cc2F)N1CC(F)F (stereo partly shown)	> 100 nM
C[C@@H]1Cc2c([nH]c3ccccc23)[C@@H](c2c(F)cc(N3CCC4(CCN(CC(=O)N5Cc6cc7c(cc6C5)C(=O)N(C5CCC(=O)NC5=O)C7)CC4)C3)cc2F)N1CC(F)F (stereo partly shown)	< 10 nM
C[C@@H]1Cc2cc(O)ccc2[C@@H](c2c(F)cc(N3CC4(CCN(C(=O)CN5Cc6cc7c(cc6C5)C(=O)N(C5CCC(=O)NC5=O)C7)C4)C3)cc2F)N1CC(F)F (stereo partly shown)	< 10 nM

* * *

target: ER (Homo sapiens); construct: host or cells: T47D and MCF7 human breast cancer cells; experiment: ER degradation activity, in-cell western blot analysis in T47D cells; assay type: cell-based; details: 16 hours, Table A does not say which cell line (T47D or MCF7), read-out: Potency (DC50)
Each record here notes measured DC50.

COMPOUND	DC50
O=C1CCC(N2C(=O)c3cc4c(cc3C2=O)CN(CC2(F)CCN(CC3CCN(c5ccc([C@@H]6c7ccc(O)cc7CC[C@@H]6c6ccccc6)cc5)CC3)CC2)C4)C(=O)N1 (some centres unmarked)	> 100 nM
O=C1CCC(N2C(=O)c3cc4c(cc3C2=O)CN([C@H]2CC[C@H](C(=O)N3CC(Oc5ccc([C@H]6c7ccc(O)cc7CC[C@H]6c6ccccc6)cc5)C3)CC2)C4)C(=O)N1 (some centres unmarked)	< 10 nM
C[C@@H]1Cc2c([nH]c3ccccc23)[C@@H](c2ccc(N3CCC(C(=O)N4CCC(N5Cc6cc7c(cc6C5)C(=O)N(C5CCC(=O)NC5=O)C7=O)CC4)CC3)cc2F)N1CC(F)F (some centres unmarked)	< 10 nM
O=C1CCC(N2C(=O)c3cc4c(cc3C2=O)CN(C(=O)C2CCN(CC3CN(c5ccc([C@@H]6c7ccc(O)cc7CC[C@@H]6c6ccccc6)cc5)C3)CC2)C4)C(=O)N1 (some centres unmarked)	> 100 nM
C[C@@H]1Cc2c([nH]c3ccccc23)[C@@H](c2c(F)cc(N3CCC4(CC3)CN(C(=O)CN3Cc5cc6c(cc5C3)C(=O)N(C3CCC(=O)NC3=O)C6=O)C4)cc2F)N1CC(F)F (some centres unmarked)	< 10 nM
O=C1CCC(N2C(=O)c3cc4c(cc3C2=O)CN(C(=O)[C@H]2CC[C@@H](N3CC(Oc5ccc([C@H]6c7ccc(O)cc7CC[C@H]6c6ccccc6)cc5)C3)CC2)C4)C(=O)N1 (some centres unmarked)	> 100 nM
C[C@@H]1Cc2c([nH]c3ccccc23)[C@@H](c2c(F)cc(N3CCC4(CC3)CC(C(=O)N3CCC(N5Cc6cc7c(cc6C5)C(=O)N(C5CCC(=O)NC5=O)C7=O)CC3)C4)cc2F)N1CC(F)F (some centres unmarked)	< 10 nM
C[C@@H]1Cc2c([nH]c3ccccc23)[C@@H](c2c(F)cc(N3CCC(CN4Cc5cc6c(cc5C4)C(=O)N(C4CCC(=O)NC4=O)C6=O)CC3)cc2F)N1CC(F)F (some centres unmarked)	> 100 nM
